- assayProcedure: pKa value by spectrophotometrically at pH 8.2 (for di ionic form )
- Format: physicochemical
- conditionSet: read-out: pKa2
measure: pKa

1) Nc1ccc(S(=O)(=O)c2c(O)cc(O)cc2O)cc1
9.62

----------
Known pKa of a selection of compounds
- assayProcedure: pKa value by spectrophotometrically at pH 8.2 (for mono ionic form)
- Assay type: physicochemical
- conditionSet: read-out: pKa1
measure: pKa

1) Nc1ccc(S(=O)(=O)c2c(O)cc(O)cc2O)cc1
7.69
2) Nc1ccc(S(=O)(=O)c2ccc(O)cc2O)cc1
7.67
